These data points were gathered from patent US20250152746A1.

- Test system: PCSK9 gene
- Protocol Notes: PCSK9 gRNA/SpCas9 editing in primary human hepatocytes (Tables 2, 4)
- Format: cell-based
- Run Conditions: 2500 ng/RNA/mL; SpCas9 mRNA MS002 1:1 by weight
In the oligonucleotide strings, read from the 5' end, every base follows the letter of its sugar. An asterisk marks phosphorothioate; unmarked linkages are phosphodiester. Other units and linkages are bracketed, terminal groups are in braces. A string of capitals states the bases alone. m = 2'-O-methyl; r = 2'-OH (RNA)
Label rule, in plain words: Human Primary Hepatocyte Editing % 2500 of 30% and up is YES, under 30% is NO.

Molecule	Classification
GA182: PCSK9 gRNA; protospacer CACCTACGTGGTGGTGCTGA (SEQ ID NO: 176) (nucleic acid) guide: mC*mA*mC*rCrUrArCrGrUrGrGrUrGrGrUrGrCrUrGrArGrUrUrUrUrArGrArGrCrUrArGrArArArUrArGrCrArArGrUrUrArArArArUrArArGrGrCrUrArGrUrCrCrGrUrUrArUrCrArArCrUrUrGrArArArArArGrUrGrGrCrArCrCrGrArGrUrCrGrGrUrGrCrU*mU*mU*mU	NO
GA191: PCSK9 gRNA; protospacer GCCCCATGTCGACTACATCG (SEQ ID NO: 185) (nucleic acid) guide: mG*mC*mC*rCrCrArUrGrUrCrGrArCrUrArCrArUrCrGrGrUrUrUrUrArGrArGrCrUrArGrArArArUrArGrCrArArGrUrUrArArArArUrArArGrGrCrUrArGrUrCrCrGrUrUrArUrCrArArCrUrUrGrArArArArArGrUrGrGrCrArCrCrGrArGrUrCrGrGrUrGrCrU*mU*mU*mU	YES
GA223: PCSK9 gRNA; protospacer GCTGACCACCCCTGCCAGGT (SEQ ID NO: 217) (nucleic acid, sugars from the 5' end m3 r94 m3, linkages s3 o93 s3 (s phosphorothioate, o phosphodiester), T or U not given here) guide: GCUGACCACCCCUGCCAGGUGUUUUAGAGCUAGAAAUAGCAAGUUAAAAUAAGGCUAGUCCGUUAUCAACUUGAAAAAGUGGCACCGAGUCGGUGCUUUU	NO
GA192: PCSK9 gRNA; protospacer CCATGTCGACTACATCGAGG (SEQ ID NO: 186) (nucleic acid) guide: mC*mC*mA*rUrGrUrCrGrArCrUrArCrArUrCrGrArGrGrGrUrUrUrUrArGrArGrCrUrArGrArArArUrArGrCrArArGrUrUrArArArArUrArArGrGrCrUrArGrUrCrCrGrUrUrArUrCrArArCrUrUrGrArArArArArGrUrGrGrCrArCrCrGrArGrUrCrGrGrUrGrCrU*mU*mU*mU	NO

Let's switch to this molecule now.
Answer whether Human Primary Hepatocyte Editing % 2500 of GA218: PCSK9 gRNA; protospacer CGCTGACCACCCCTGCCAGG (SEQ ID NO: 212) (nucleic acid, sugars from the 5' end m3 r94 m3, linkages s3 o93 s3 (s phosphorothioate, o phosphodiester), T or U not given here) guide: CGCUGACCACCCCUGCCAGGGUUUUAGAGCUAGAAAUAGCAAGUUAAAAUAAGGCUAGUCCGUUAUCAACUUGAAAAAGUGGCACCGAGUCGGUGCUUUU is greater than or equal to 30%.
YES
